// provenance: PubChem BioAssay (NCI)

Catalogue of growth readings, one per entry.
Tested on: RXF 393 renal
experimental_details: NCI-60 one-dose screen, 48 h (100 = growth as untreated, 0 = no growth, -100 = all killed)
stated_conditions: 10 µM unless noted
This is part of a sample that, as a whole, favours compounds with a hit. Of some 83,000 tested, about 20% had one in any assay.
Quick reminder: number only, in %, skip the unit.

Take a look at these entries with their results.
O=C(O)c1cccc2c1-c1ccccc1C2=O | 90.4
CCCCCCCCCCCCNC(=O)[C@H]1CSC(c2ccc(OC)c(F)c2)N1 (some centres not stated) | -96.1
CCN(CC)CC(O)CNc1c2ccc([N+](=O)[O-])cc2nc2cc(OC)c(OC)cc12 (configuration not stated) | -43.4
COC(/C=C/c1ccc([N+](=O)[O-])cc1)OC | 87.5
O=c1c2c3c(sc2n2c(CCl)nnc2n1Cc1ccccc1)CCCC3 | -39.1
Nc1ccc(N2CCOCC2)cc1 | 108

Switching to the query record.
Observed growth on RXF 393 renal for O=C(/C=C/c1ccc(Cl)cc1)c1ccc(O)c(CN2CCN(c3cc4c(cc3F)c(=O)c(C(=O)O)cn4C3CC3)CC2)c1 , please.
45.4

====

System: SN12C renal
experimental_details: NCI-60 one-dose screen, 48 h (100 = growth as untreated, 0 = no growth, -100 = all killed)
stated_conditions: 10 µM unless noted
The panel holds about 83,000 compounds, 20% with a hit somewhere; the sample as a whole holds those more often.
property_label: growth (%)
Quick reminder: number only, in %, skip the unit.

Take a look at these entries with their results.
COc1ccc2nc(NC(=O)c3cccnc3Nc3cc(OC)c(OC)c(OC)c3)sc2c1 | 18.5
C=C1CCC2C3(C)COC(C)(C)OC3CCC2(C)C1C/C=C1/C(=O)OCC1OC(C)=O (stereo not drawn) | 33
c1c2c(cc3c1OCO3)Cc1cc3c(cc1Cc1cc4c(cc1C2)OCO4)OCO3 | 98.5
COc1cc(/C=N\NC(=O)CN2CCN(c3cc4c(cc3F)c(=O)c(C(=O)N/N=C/c3ccc(O)c(OC)c3)cn4C3CC3)CC2)ccc1O | 53.4
CCCCCCCCCCCCCC1=NCCN1CCO | 69.2

Param item = COc1ccccc1N1CCN(CCn2c(=O)c3c(c4ccccc4n3C)n(C)c2=O)CC1 ; retrieve measured growth.
81.8

Param item = C=CCSc1nnc(-c2ccc(C(C)(C)C)cc2)n1-c1cccc(C(F)(F)F)c1 ; retrieve measured growth.
29.4

Param item = Cc1cc(=O)oc2cc(Oc3nc(-c4ccc(Cl)cc4)cn4c(-c5ccc(Cl)cc5)cnc34)ccc12 ; retrieve measured growth.
100

Param item = ClC1=C2NC=NC2n2c(nnc2-c2ccc(Cl)cc2)N1 (stereo not drawn) ; retrieve measured growth.
94.5

Param item = CCCCOc1ccc(NC(=O)n2nc(NC(C)=O)c3cc(NC(C)=O)ccc32)cc1 ; retrieve measured growth.
92.2

====

Catalogue of growth readings, one per entry.
System: HOP-62 NSCLC
experimental_details: NCI-60 one-dose screen, 48 h (100 = growth as untreated, 0 = no growth, -100 = all killed)
stated_conditions: 10 µM unless noted
This is part of a sample that, as a whole, favours compounds with a hit. Of some 83,000 tested, about 20% had one in any assay.
Quick reminder: number only, in %, skip the unit.

Take a look at these entries with their results.
COc1ccc(-c2cc(-c3cccnc3)nc3sc4c(=O)n(-c5ccc(C)cc5)cnc4c23)cc1OC | 98.4
COc1c(Cl)cc(Cl)cc1Cl | 97.5
CCN(CC)CC(C)(C)C(=O)/C=C/c1ccccc1 | 90.6
C/C(Cc1ccc(Cl)cc1)=C(\c1ccc(OCCN2CCCCCC2)cc1)c1ccc(OC(=O)C2CCCCC2)cc1 | 81.5
CSc1ncnc2c1ncn2C1CCCO1 (centres undefined) | 99.7

Observed growth on HOP-62 NSCLC for Nc1c(C(=O)Nc2ccccc2)sc2nc3c(cc12)CN(CCc1ccccc1)CC3 , please.
99.2

Observed growth on HOP-62 NSCLC for COc1ccccc1/C=C(/C(=O)c1ccccc1)c1ccccc1 , please.
114

Observed growth on HOP-62 NSCLC for Cc1nc2sc(C(=O)Nc3cccc4c3OCCO4)c(N)c2cc1C(C)O (centres undefined) , please.
-3.21
